Exercise: for every item that follows, state its recorded Dose.FC.LYZ.S.
Tested on: ISC-enriched organoids
Test: Primary screen, 384-well 2.5-D organoid differentiation (ENR+CD, 6 days): carbachol-induced lysozyme secretion (LYZ.S)
Format: cell-based, murine
Conditions: Dose 0.40 uM; primary screen, FC vs plate median
Give bare numbers, in log 2 fold change.

Solved cases below.
Dose.FC.LYZ.S reading for CC(=O)c1c(C)c2cnc(Nc3ccc(N4CCNCC4)cn3)nc2n(C2CCCC2)c1=O.Cl [Palbociclib (PD-0332991) HCl] : −0.042

O=C1[C@H](Cc2ccc(O)cc2)N2C(=O)CCN(C(=O)NCc3ccccc3)[C@H]2CN1Cc1cccc2ccccc12 yielded Dose.FC.LYZ.S of 0.204

Item: Cl.Cl.NC1(c2ccc(-c3nc4ccn5c(=O)[nH]nc5c4cc3-c3ccccc3)cc2)CCC1 [MK-2206 2HCl] | Dose.FC.LYZ.S: 0.083

Sample CNC(=O)[C@H](Cc1c[nH]c2ccccc12)NC(=O)[C@@H](CC(=O)NO)CC(C)C ; Dose.FC.LYZ.S observed: 0.117

Go through the items and report each one's Dose.FC.LYZ.S.
1. C[C@H](NC(=O)[C@@H](O)c1cc(F)cc(F)c1)C(=O)N[C@@H]1C(=O)N(C)c2ccccc2-c2ccccc21
2. Nc1cccc2c1CN(C1CCC(=O)NC1=O)C2=O (centres unmarked) [Lenalidomide (CC-5013)]
3. Cc1[nH]c2ccccc2c1CCNCc1ccc(/C=C/C(=O)NO)cc1
4. O=C(c1ccc(Nc2nccc(-c3cc4ccccc4s3)n2)cc1)N1CCC(N2CCCC2)CC1
5. O=C(O)CCc1ccc(NCc2cccc(Oc3ccccc3)c2)cc1
6. O=[N+]([O-])C=Cc1ccc2c(c1)OCO2
7. Cc1cc(Nc2cc(CN3CCOCC3)c3nc(C)c(Cc4ccc(Cl)cc4F)n3n2)n[nH]1

Ans.
1. 0.041
2. 0.176
3. −0.042
4. 0.028
5. 0.049
6. 0.100
7. 0.077

Required: Dose.FC.LYZ.S, one value per molecule below.
1. Clc1ccc(N/N=C(\c2ccccc2)c2ccccn2)nc1
2. S=C=Nc1cccc(NC(=S)NCCCCNC(=S)Nc2cccc(N=C=S)c2)c1
3. COC(=O)CCSCc1ccc(-c2onc(C)c2NC(=O)OC(C)c2ccccc2Cl)cc1 (centres unmarked)

Ans.
1: 0.084; 2: 0.067; 3: 0.031

* * *

Tested on: ISC-enriched organoids
Experiment: Primary screen, 384-well 2.5-D organoid differentiation (ENR+CD, 6 days): basal lysozyme secretion (LYZ.NS)
Format: cell-based, murine
Details: Dose 2.00 uM; standard z score of FC
From the text: High-throughput screening.
property: Z.LYZ.NS
Give bare numbers.

Given the compound CCC(CC)(NC(=O)C(C)C)C(=O)N[C@@H](CCCN=C(N)N)C(=O)NC1(C(=O)NC(c2ccc(F)cc2)c2ccc(F)cc2)CCCC1 and test system ISC-enriched organoids, the measured Z.LYZ.NS is 0.230

Would you mind giving Z.LYZ.NS for every compound in the list below?
1. COc1ccccc1S(=O)(=O)Nc1ccc2c(c1)CN(C)C(=O)N2
2. C[C@H](N[C@@H](CCc1ccccc1)C(=O)O)C(=O)N1CCC[C@H]1C(=O)O.O.O [Enalaprilat Dihydrate]

Ans.
−0.852
−0.195

* * *

Field: Dose.FC.CTG. Provide a value for each of the compounds that follow.
Tested on: ISC-enriched organoids
Experiment: Primary screen, 384-well 2.5-D organoid differentiation (ENR+CD, 6 days, Target Selective Inhibitor Library, vs whole-plate median): ATP (CellTiter-Glo 3D, CTG)
Settings: Dose 10.00 uM; primary screen, FC vs plate median
Numbers only, in log 2 fold change.

Illustrative cases are given below, each with its answer.
Measured on ISC-enriched organoids, CCOC(=O)CCNc1cc(N2CCc3ccccc3CC2)nc(-c2ccccn2)n1.Cl [GSK J4 HCl] has a documented Dose.FC.CTG of 0.233

Tested system ISC-enriched organoids; Dose.FC.CTG recorded for C[C@]1(O)C[C@@H](c2nc(-c3ccc4ccc(-c5ccccc5)nc4c3)c3c(N)nccn32)C1 [OSI-906 (Linsitinib)] was −0.391

Could you tell me Dose.FC.CTG for each of these compounds? They are listed below.
1. S=C=Nc1cccc(NC(=S)NCCCCNC(=S)Nc2cccc(N=C=S)c2)c1 [MRS 2578]
2. COc1cc(-n2c(=S)[nH]c3ccccc3c2=O)c(Cl)cc1Cl [Mdivi-1]
3. CN1C(=O)C(Cc2c[nH]c3ccccc23)NC1=S (stereo not shown) [Necrostatin-1]

Ans.
1: −0.228; 2: −0.527; 3: 0.137

Batch lookup, Dose.FC.CTG per entry.
1. O=C(c1ccc(Nc2nccc(-c3cc4ccccc4s3)n2)cc1)N1CCC(N2CCCC2)CC1 [IKK-16 (IKK Inhibitor VII)]
2. CS(=O)(=O)c1cccc(CNc2nc(Nc3ccc4c(c3)CCC(=O)N4)ncc2C(F)(F)F)c1 [PF-573228]

Ans.
1: −0.950; 2: −0.497
